# assay.target: integrin α4β7 (Homo sapiens, UniProt P13612+P26010)
# Construct: lymphoma cell strain RPMI-8866 of human B cells, known to express integrin α4β7; endogenous in cells
# Sequence (P13612 34-1032): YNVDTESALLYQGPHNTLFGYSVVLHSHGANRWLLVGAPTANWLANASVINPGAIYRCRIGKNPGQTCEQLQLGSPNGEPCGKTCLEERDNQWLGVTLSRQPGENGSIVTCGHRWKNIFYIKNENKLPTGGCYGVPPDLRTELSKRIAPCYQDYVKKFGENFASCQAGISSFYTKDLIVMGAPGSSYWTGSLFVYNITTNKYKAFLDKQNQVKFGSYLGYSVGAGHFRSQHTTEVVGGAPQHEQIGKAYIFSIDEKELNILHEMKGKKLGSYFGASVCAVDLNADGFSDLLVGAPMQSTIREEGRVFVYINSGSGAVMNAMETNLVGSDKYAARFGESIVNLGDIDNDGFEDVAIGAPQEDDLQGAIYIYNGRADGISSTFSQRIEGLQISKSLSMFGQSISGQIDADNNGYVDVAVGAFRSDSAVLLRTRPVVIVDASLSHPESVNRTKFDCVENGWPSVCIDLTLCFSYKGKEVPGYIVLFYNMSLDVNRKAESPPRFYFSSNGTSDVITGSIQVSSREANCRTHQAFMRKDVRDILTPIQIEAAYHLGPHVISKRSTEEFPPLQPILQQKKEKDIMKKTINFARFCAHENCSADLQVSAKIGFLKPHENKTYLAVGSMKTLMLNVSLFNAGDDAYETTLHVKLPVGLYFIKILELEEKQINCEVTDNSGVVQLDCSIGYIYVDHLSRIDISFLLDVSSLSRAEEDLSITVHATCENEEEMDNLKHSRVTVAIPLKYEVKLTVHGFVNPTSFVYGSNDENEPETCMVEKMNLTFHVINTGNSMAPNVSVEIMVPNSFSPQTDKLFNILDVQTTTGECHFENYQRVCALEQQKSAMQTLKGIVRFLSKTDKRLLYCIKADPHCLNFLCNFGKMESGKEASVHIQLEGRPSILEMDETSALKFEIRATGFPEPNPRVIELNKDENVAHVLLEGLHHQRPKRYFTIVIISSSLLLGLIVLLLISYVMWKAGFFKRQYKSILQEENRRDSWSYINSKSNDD
# Sequence (P26010 20-798): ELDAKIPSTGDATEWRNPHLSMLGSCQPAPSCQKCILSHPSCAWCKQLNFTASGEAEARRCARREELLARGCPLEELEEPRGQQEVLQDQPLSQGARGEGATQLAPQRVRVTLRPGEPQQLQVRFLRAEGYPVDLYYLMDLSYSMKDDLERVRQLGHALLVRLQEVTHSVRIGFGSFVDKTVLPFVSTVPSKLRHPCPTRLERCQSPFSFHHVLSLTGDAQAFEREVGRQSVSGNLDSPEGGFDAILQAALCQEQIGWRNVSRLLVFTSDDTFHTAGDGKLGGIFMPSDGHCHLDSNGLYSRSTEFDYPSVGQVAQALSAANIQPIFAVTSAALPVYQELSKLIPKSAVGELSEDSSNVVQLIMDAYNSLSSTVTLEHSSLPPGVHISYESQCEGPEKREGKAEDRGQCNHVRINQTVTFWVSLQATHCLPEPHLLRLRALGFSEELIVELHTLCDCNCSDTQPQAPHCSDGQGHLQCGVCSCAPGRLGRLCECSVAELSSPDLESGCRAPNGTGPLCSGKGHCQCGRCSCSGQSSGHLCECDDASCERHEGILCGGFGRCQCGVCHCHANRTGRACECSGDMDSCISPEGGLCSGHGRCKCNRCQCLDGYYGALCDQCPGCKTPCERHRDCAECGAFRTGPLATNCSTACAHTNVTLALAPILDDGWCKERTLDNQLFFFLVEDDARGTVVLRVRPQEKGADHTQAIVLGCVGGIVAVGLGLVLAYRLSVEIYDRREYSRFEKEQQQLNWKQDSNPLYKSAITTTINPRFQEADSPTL
# assay.procedure: Assessment of VCAM-1/α4β7 binding antagonistic activity (RPMI-8866 cells binding to VCAM-1)
# cond: RPMI-8866 human B lymphoma cells binding to recombinant human VCAM-1, binding buffer with 4 mM MnCl2; read-out: integrin VCAM/α4 binding antagonistic activity (IC50) α4β7
# Protocol: The capacity of a test substance antagonistic to the binding of lymphoma cell strain RPMI-8866 of human B cells, known to express integrin α4β7, to VCAM-1 was determined. […] RPMI-8866 cells were washed with DMEM twice and incubated in Dulbecco modified Eagle medium containing 10 μg/ml of Calcein-AM (Wako Pure Chemical Industries, Ltd.) (SIGMA, hereinafter referred to as “DMEM”) in dark place at 37° C. for 30 minutes to label with fluorescence. […]
pIC50: −log10 of the molar value.
endpoint.name: pIC50

compound	observed.result
O=C(N[C@@H](Cc1ccc(-n2c(=O)c3ccccc3n(Cc3c(Cl)cccc3Cl)c2=O)cc1)C(=O)O)c1c(Cl)cccc1Cl [Reference Example 114]	7.57

[a] COc1ccc2nnn(-c3ccc(C[C@H](NC(=O)c4c(Cl)cccc4Cl)C(=O)O)cc3)c(=O)c2c1 [Reference Example 84]
[b] CN(C)c1ccc2c(c1)c(=O)n(-c1ccc(C[C@H](NC(=O)c3c(Cl)cccc3Cl)C(=O)O)cc1)c(=O)n2C [Reference Example 108]
Task: Smaller pIC50 value? Options are a and b Select an item and report its label.
Output: a
